B1: Kinesin-like protein KIF16B, residues 1213 to 1273; numbered along this chain, Q96L93 (parent)
chain: ETWTVFRRYSRFREMHKTLKLKYAELAALEFPPKKLFGNKDERVIAERRSHLEKYLRDFFS

Variants of: B1
Test: abundance fitness (aPCA) (normalised: wild type 0, dead -1); higher = more abundant; growth selection in yeast, the domain comes from the species named
Settings: Homo sapiens
We use -0.3 as the dividing line for abundance fitness: on or above the line is YES, below is NO.

Prompt: Test whether the variant `ETWTVFRRYSRFREMHKTLKLKYAELAALEFPPKKLGGNKDERVIAERRSHLEKYLRDFFS` records abundance fitness of -0.3 or higher.
Response: NO

Prompt: Do the same for `ETWTVFRRYQRFREMHKTLKLKYAELAALEFPPKKLFGNKDERVIAERRSHLEKYLRDFFS` please
Response: NO

Prompt: Same question for `EGWTVFRRYSRFREMHKTLKLKYAELAALEFPPKKLFGNKDERVIAERRSHLEKYLRDFFS` please.
Response: NO

Prompt: Repeat for the following variant: `ETWTVFRRYSRFREMHKTLKLKYAELAALEFPPKKLFGNKDERVIAERRSHLEKYLVDFFS`
Response: NO

Prompt: What do you have for `ETWTVFRRYSRFREMHKTLKLKYAELAALEFPPKKLFGNKDERVIAERRSHLEKYLRDFWS` ?
Response: YES

Prompt: Similarly, `ETWTVFRRYSRFREMHKTLKLKYAELAALERPPKKLFGNKDERVIAERRSHLEKYLRDFFS` ?
Response: NO

Prompt: Item: `ETWTVFRRYSRFREMHKTLKLKYAELAALEFPPKKLFGNKDERVIAERRSHLERYLRDFFS`
Response: YES

Prompt: Entry to check: `ETWTVFRRYSRFREMHKTLKLKYAELAALEFPPKKLFGNKDERVIAERRSHLEKYLRDFFP`
Response: NO

Prompt: Now consider `ETWTVFRRYSRFREMHKTLKLKYAELLALEFPPKKLFGNKDERVIAERRSHLEKYLRDFFS` .
Response: YES

Prompt: Same again, this time with `ETWTVFRRASRFREMHKTLKLKYAELAALEFPPKKLFGNKDERVIAERRSHLEKYLRDFFS`
Response: YES

Prompt: What about this variant? `ETWTVFRRYSRFREMHKTLKLKYAELAALEFPPKKLFGNKDERVIAERRSHLEKYLPDFFS`
Response: YES
